# assay-summary: 8-day repeat-dose study, tolerability (blood chemistry, hematology, adverse events) in tumor-bearing dogs
# Type: in vivo, dog
# condition-context: Dog 5; Post: 30 min after last injection on day 8; 10 mg s.c. once daily for 8 days
Where a SMILES comes first, the peptide text is derived from it. [ ]: non-standard residue; d: D form. Hyp = O=C(O)[C@@H]1C[C@@H](O)CN1
assay-metric: ALP (U/L)
Numeric only. Scale: U/L

Problem: Field request: ALP | item: CC(C)[C@@H]1NC(=O)[C@@H]2C[C@@H](O)CN2C(=O)[C@H]([C@@H](C)O)NC(=O)[C@H](CCCCN)NC(=O)[C@H](CCC(=O)O)NC(=O)[C@H](CC(N)=O)NC(=O)CNC(=O)[C@@H]2C[C@@H](O)CN2C(=O)[C@H](CC(N)=O)NC1=O [AFPep] (cyclo(EKT[Hyp]VN[Hyp]GN))
Solution: 15

###

# assay-summary: 8-day repeat-dose study, tolerability (blood chemistry, hematology, adverse events) in tumor-bearing dogs
# Type: in vivo, dog
# condition-context: Dog 2; Post: 30 min after last injection on day 8; 10 mg s.c. once daily for 8 days
Where a SMILES comes first, the peptide text is derived from it. [ ]: non-standard residue; d: D form. Hyp = O=C(O)[C@@H]1C[C@@H](O)CN1
assay-metric: Potassium
Reply with a number, then the unit it belongs to.

Problem: Field request: Potassium | item: CC(C)[C@@H]1NC(=O)[C@@H]2C[C@@H](O)CN2C(=O)[C@H]([C@@H](C)O)NC(=O)[C@H](CCCCN)NC(=O)[C@H](CCC(=O)O)NC(=O)[C@H](CC(N)=O)NC(=O)CNC(=O)[C@@H]2C[C@@H](O)CN2C(=O)[C@H](CC(N)=O)NC1=O [AFPep] (cyclo(EKT[Hyp]VN[Hyp]GN))
Solution: 5 mmol/L

###

# assay-summary: 8-day repeat-dose study, tolerability (blood chemistry, hematology, adverse events) in tumor-bearing dogs
# Assay type: in vivo, dog
# condition-context: Dog 2; Post: 30 min after last injection on day 8; 10 mg s.c. once daily for 8 days
# Protocol: Previous studies utilizing repeat dosing in mice and rats established safe starting doses for studies using dogs. […] Blood levels of AFPep were measured before and 30 minutes following its administration on the first day and eighth day of treatment with AFPep. […] Tolerability was assessed using the Veterinary Cooperative Oncology Group Common Terminology Criteria for Adverse Events. […]
Where a SMILES comes first, the peptide text is derived from it. [ ]: non-standard residue; d: D form. Hyp = O=C(O)[C@@H]1C[C@@H](O)CN1
assay-metric: HGB (g/dL)
Numeric only. Scale: g/dL

Problem: Field request: HGB | item: CC(C)[C@@H]1NC(=O)[C@@H]2C[C@@H](O)CN2C(=O)[C@H]([C@@H](C)O)NC(=O)[C@H](CCCCN)NC(=O)[C@H](CCC(=O)O)NC(=O)[C@H](CC(N)=O)NC(=O)CNC(=O)[C@@H]2C[C@@H](O)CN2C(=O)[C@H](CC(N)=O)NC1=O [AFPep] (cyclo(EKT[Hyp]VN[Hyp]GN))
Solution: 17

###

# assay-summary: 8-day repeat-dose study, AFPep blood levels in tumor-bearing dogs
# Assay type: in vivo, dog
# condition-context: female, diverse breeds, dog, blood, sc, 10 mg, Mean ± S.D. of 6 tumor-bearing dogs; 30 min after the day-8 dose; 10 mg s.c. once daily for 8 days; read-out: AFPep blood level, Day 8 Post-Treatment
Where a SMILES comes first, the peptide text is derived from it. [ ]: non-standard residue; d: D form. Hyp = O=C(O)[C@@H]1C[C@@H](O)CN1
assay-metric: level at 0.5 h (ng/mL)
Numeric only. Scale: ng/mL

Problem: Field request: level at 0.5 h | item: CC(C)[C@@H]1NC(=O)[C@@H]2C[C@@H](O)CN2C(=O)[C@H]([C@@H](C)O)NC(=O)[C@H](CCCCN)NC(=O)[C@H](CCC(=O)O)NC(=O)[C@H](CC(N)=O)NC(=O)CNC(=O)[C@@H]2C[C@@H](O)CN2C(=O)[C@H](CC(N)=O)NC1=O [AFPep] (cyclo(EKT[Hyp]VN[Hyp]GN))
Solution: 2500

###

# assay-summary: 8-day repeat-dose study, tolerability (blood chemistry, hematology, adverse events) in tumor-bearing dogs
# Type: in vivo, dog
# condition-context: Dog 3; Post: 30 min after last injection on day 8; 10 mg s.c. once daily for 8 days
# Experimental: Previous studies utilizing repeat dosing in mice and rats established safe starting doses for studies using dogs. […] Blood levels of AFPep were measured before and 30 minutes following its administration on the first day and eighth day of treatment with AFPep. […] Tolerability was assessed using the Veterinary Cooperative Oncology Group Common Terminology Criteria for Adverse Events. […]
Where a SMILES comes first, the peptide text is derived from it. [ ]: non-standard residue; d: D form. Hyp = O=C(O)[C@@H]1C[C@@H](O)CN1
assay-metric: Total Protein
Reply with a number, then the unit it belongs to.

Problem: Field request: Total Protein | item: CC(C)[C@@H]1NC(=O)[C@@H]2C[C@@H](O)CN2C(=O)[C@H]([C@@H](C)O)NC(=O)[C@H](CCCCN)NC(=O)[C@H](CCC(=O)O)NC(=O)[C@H](CC(N)=O)NC(=O)CNC(=O)[C@@H]2C[C@@H](O)CN2C(=O)[C@H](CC(N)=O)NC1=O [AFPep] (cyclo(EKT[Hyp]VN[Hyp]GN))
Solution: 7 g/dL

###

# assay-summary: 8-day repeat-dose study, tolerability (blood chemistry, hematology, adverse events) in tumor-bearing dogs
# Format: in vivo, dog
# condition-context: Dog 5; Post: 30 min after last injection on day 8; 10 mg s.c. once daily for 8 days
# Protocol: Previous studies utilizing repeat dosing in mice and rats established safe starting doses for studies using dogs. […] Blood levels of AFPep were measured before and 30 minutes following its administration on the first day and eighth day of treatment with AFPep. […] Tolerability was assessed using the Veterinary Cooperative Oncology Group Common Terminology Criteria for Adverse Events. […]
Where a SMILES comes first, the peptide text is derived from it. [ ]: non-standard residue; d: D form. Hyp = O=C(O)[C@@H]1C[C@@H](O)CN1
assay-metric: Albumin (g/dL)
Numeric only. Scale: g/dL

Problem: Field request: Albumin | item: CC(C)[C@@H]1NC(=O)[C@@H]2C[C@@H](O)CN2C(=O)[C@H]([C@@H](C)O)NC(=O)[C@H](CCCCN)NC(=O)[C@H](CCC(=O)O)NC(=O)[C@H](CC(N)=O)NC(=O)CNC(=O)[C@@H]2C[C@@H](O)CN2C(=O)[C@H](CC(N)=O)NC1=O [AFPep] (cyclo(EKT[Hyp]VN[Hyp]GN))
Solution: 4

###

# assay-summary: 8-day repeat-dose study, tolerability (blood chemistry, hematology, adverse events) in tumor-bearing dogs
# Type: in vivo, dog
# condition-context: Dog 2; Post: 30 min after last injection on day 8; 10 mg s.c. once daily for 8 days
Where a SMILES comes first, the peptide text is derived from it. [ ]: non-standard residue; d: D form. Hyp = O=C(O)[C@@H]1C[C@@H](O)CN1
assay-metric: ALT (U/L)
Numeric only. Scale: U/L

Problem: Field request: ALT | item: CC(C)[C@@H]1NC(=O)[C@@H]2C[C@@H](O)CN2C(=O)[C@H]([C@@H](C)O)NC(=O)[C@H](CCCCN)NC(=O)[C@H](CCC(=O)O)NC(=O)[C@H](CC(N)=O)NC(=O)CNC(=O)[C@@H]2C[C@@H](O)CN2C(=O)[C@H](CC(N)=O)NC1=O [AFPep] (cyclo(EKT[Hyp]VN[Hyp]GN))
Solution: 14

###

# assay-summary: 8-day repeat-dose study, tolerability (blood chemistry, hematology, adverse events) in tumor-bearing dogs
# Format: in vivo, dog
# condition-context: Dog 2; Post: 30 min after last injection on day 8; 10 mg s.c. once daily for 8 days
# Method: Previous studies utilizing repeat dosing in mice and rats established safe starting doses for studies using dogs. […] Blood levels of AFPep were measured before and 30 minutes following its administration on the first day and eighth day of treatment with AFPep. […] Tolerability was assessed using the Veterinary Cooperative Oncology Group Common Terminology Criteria for Adverse Events. […]
Where a SMILES comes first, the peptide text is derived from it. [ ]: non-standard residue; d: D form. Hyp = O=C(O)[C@@H]1C[C@@H](O)CN1
assay-metric: Bilirubin Conj. (mg/dL)
Numeric only. Scale: mg/dL

Problem: Field request: Bilirubin Conj. | item: CC(C)[C@@H]1NC(=O)[C@@H]2C[C@@H](O)CN2C(=O)[C@H]([C@@H](C)O)NC(=O)[C@H](CCCCN)NC(=O)[C@H](CCC(=O)O)NC(=O)[C@H](CC(N)=O)NC(=O)CNC(=O)[C@@H]2C[C@@H](O)CN2C(=O)[C@H](CC(N)=O)NC1=O [AFPep] (cyclo(EKT[Hyp]VN[Hyp]GN))
Solution: 0.1

###

# assay-summary: 8-day repeat-dose study, tolerability (blood chemistry, hematology, adverse events) in tumor-bearing dogs
# Type: in vivo, dog
# condition-context: Dog 2; Post: 30 min after last injection on day 8; 10 mg s.c. once daily for 8 days
Where a SMILES comes first, the peptide text is derived from it. [ ]: non-standard residue; d: D form. Hyp = O=C(O)[C@@H]1C[C@@H](O)CN1
assay-metric: Bicarbonate (mmol/L)
Numeric only. Scale: mmol/L

Problem: Field request: Bicarbonate | item: CC(C)[C@@H]1NC(=O)[C@@H]2C[C@@H](O)CN2C(=O)[C@H]([C@@H](C)O)NC(=O)[C@H](CCCCN)NC(=O)[C@H](CCC(=O)O)NC(=O)[C@H](CC(N)=O)NC(=O)CNC(=O)[C@@H]2C[C@@H](O)CN2C(=O)[C@H](CC(N)=O)NC1=O [AFPep] (cyclo(EKT[Hyp]VN[Hyp]GN))
Solution: 23
